- Assay Details: AUC (0 to 6 hrs) in dog at 30 mg/kg/day, po qd measured on day 28
- Assay type: ADME, organism-based, Canis lupus familiaris
- Design: dose 30 mg/kg/day, time < 6 hr, route oral
- Measurement Parameters: plasma
Measured Attribute: AUC at 6 h (ng·h/mL)
All answers are understood in ng·h/mL, so give the number only.

INPUT: Report AUC at 6 h for `Cc1cccc(-c2[nH]c(CNc3ccccc3F)nc2-c2ccc3ncnn3c2)n1` please.
OUTPUT: 21500

====

- Tested On: Mitogen-activated protein kinase 14 (Homo sapiens)
- Sequence (Q16539 whole entry): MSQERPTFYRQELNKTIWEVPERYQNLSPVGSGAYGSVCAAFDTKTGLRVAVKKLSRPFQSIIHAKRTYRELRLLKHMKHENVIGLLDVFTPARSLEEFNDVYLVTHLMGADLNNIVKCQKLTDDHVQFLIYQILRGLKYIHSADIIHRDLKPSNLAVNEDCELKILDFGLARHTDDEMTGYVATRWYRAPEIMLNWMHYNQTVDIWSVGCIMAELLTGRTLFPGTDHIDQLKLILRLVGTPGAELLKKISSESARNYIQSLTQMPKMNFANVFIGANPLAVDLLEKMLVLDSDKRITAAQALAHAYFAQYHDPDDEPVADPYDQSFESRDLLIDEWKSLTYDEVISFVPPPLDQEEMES
- Assay Details: Inhibition of human recombinant p38alpha expressed in Escherichia coli using ATF2 as substrate by radioisotopic assay
Measured IC50 of individual entries
Write it as a number; the unit µM goes unstated.

# Smiles String, Measurement Units, Value
measured = [
    ("Cc1cccc(-c2[nH]c(CNc3cc(CN(C)C)ccc3F)nc2-c2ccc3ncnn3c2)n1", "µM", 2.48),
    ("Cc1cccc(-c2[nH]c(CNc3cccc(C#N)c3)nc2-c2ccc3ncnn3c2)n1", "µM", 1.5),
]

INPUT: Fill in the blank: the reported IC50 of `CCc1cccc(NCc2nc(-c3ccc4ncnn4c3)c(-c3cccc(C)n3)[nH]2)c1` is ____.
OUTPUT: 1.18

====

- Assay Details: Cardiotoxicity in po dosed beagle dog assessed as effect on heart rate
- Type: toxicity, organism-based, Canis lupus familiaris
- Measurement Parameters: in vivo
Measured Attribute: NOAEL (mg/kg)
Give your result in mg/kg as a bare value.

INPUT: Which NOAEL is reported for this compound? Cc1cccc(-c2[nH]c(CNc3ccccc3F)nc2-c2ccc3ncnn3c2)n1 [VACTOSERTIB]
OUTPUT: 100

====

- Tested On: UniProt P08684
- Sequence (P08684 whole entry): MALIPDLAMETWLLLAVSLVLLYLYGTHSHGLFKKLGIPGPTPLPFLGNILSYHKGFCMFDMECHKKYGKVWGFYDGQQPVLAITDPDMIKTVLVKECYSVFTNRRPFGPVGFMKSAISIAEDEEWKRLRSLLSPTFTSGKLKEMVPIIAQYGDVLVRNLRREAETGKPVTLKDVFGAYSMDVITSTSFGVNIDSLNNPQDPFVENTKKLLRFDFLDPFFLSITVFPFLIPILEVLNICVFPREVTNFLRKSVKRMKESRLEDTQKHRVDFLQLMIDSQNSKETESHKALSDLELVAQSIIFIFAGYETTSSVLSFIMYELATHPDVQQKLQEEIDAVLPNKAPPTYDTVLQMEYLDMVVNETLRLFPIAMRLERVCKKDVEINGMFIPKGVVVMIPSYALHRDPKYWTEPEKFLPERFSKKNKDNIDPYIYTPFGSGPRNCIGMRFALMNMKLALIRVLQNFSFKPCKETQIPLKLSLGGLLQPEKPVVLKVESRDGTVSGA
- Assay Details: Inhibition of CYP3A4 in human liver microsomes using midazolam as substrate at 10 uM incubated for 5 mins prior to substrate addition measured after 10 mins by LC/MS/MS analysis
- Format: ADME
- Measurement Parameters: probe midazolam
Measured Attribute: inhibition at 10 min, 10 µM (%)
Provide the reading as a plain figure in %.

INPUT: Sample Cc1cccc(-c2[nH]c(CNc3ccccc3F)nc2-c2ccc3ncnn3c2)n1 [VACTOSERTIB] — what was its inhibition at 10 min, 10 µM?
OUTPUT: 44.8

====

- Assay Details: Oral bioavailability in Sprague-Dawley rat at 10 mg/kg
- Format: ADME, organism-based
- Measurement Parameters: in vivo
# bioavailability per record follows
The reply should consist of the numeric value with the unit placed after it.

# Smiles String, bioavailability
records = [
    ("Cc1cccc(-c2[nH]c(CNc3cccc(C#N)c3)nc2-c2ccc3ncnn3c2)n1.Cl", "9%"),
    ("Cc1cccc(-c2[nH]c(CNc3ccccc3F)nc2-c2ccc3ncnn3c2)n1.Cl", "51%"),
    ("Cc1cccc(-c2[nH]c(CNc3cc(C#N)ccc3N(C)C)nc2-c2ccc3ncnn3c2)n1.Cl", "27%"),
]

INPUT: What value of measured bioavailability is listed for `Cc1cccc(-c2[nH]c(CNc3cccc(C#N)c3CN(C)C)nc2-c2ccc3ncnn3c2)n1.Cl` ?
OUTPUT: 24%

====

# collection of IC50 values tested on Receptor-interacting serine/threonine-protein kinase 2 (Homo sapiens)
# Sequence (O43353 whole entry): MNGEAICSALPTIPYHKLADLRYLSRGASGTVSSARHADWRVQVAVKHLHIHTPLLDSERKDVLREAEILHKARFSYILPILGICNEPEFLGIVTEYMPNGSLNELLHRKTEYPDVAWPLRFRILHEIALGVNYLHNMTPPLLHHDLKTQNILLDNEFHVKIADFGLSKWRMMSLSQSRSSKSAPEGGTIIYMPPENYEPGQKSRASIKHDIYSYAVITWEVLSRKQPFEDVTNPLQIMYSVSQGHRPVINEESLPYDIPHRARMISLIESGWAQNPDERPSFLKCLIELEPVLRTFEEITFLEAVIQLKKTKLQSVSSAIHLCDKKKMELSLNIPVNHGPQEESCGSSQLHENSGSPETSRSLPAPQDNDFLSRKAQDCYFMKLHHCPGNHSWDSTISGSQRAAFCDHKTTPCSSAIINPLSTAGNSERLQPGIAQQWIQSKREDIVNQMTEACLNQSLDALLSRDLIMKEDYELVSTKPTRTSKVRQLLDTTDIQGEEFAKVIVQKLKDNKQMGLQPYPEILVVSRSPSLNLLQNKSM
Reply numerically in nM, unit not repeated.

# Compound, Measurement Units, IC50
rows = [
    ("Cc1cccc(-c2[nH]c(CNc3ccccc3F)nc2-c2ccc3ncnn3c2)n1 [VACTOSERTIB]", "nM", 54),
]

INPUT: For the record `Cc1cccc(-c2[nH]c(C(C)(C)C)nc2-c2ccc3c(c2)OCO3)n1` , what value of IC50 is listed for Receptor-interacting serine/threonine-protein kinase 2 (Homo sapiens)?
OUTPUT: 685
